Assay: qHTS of pediatric cancer cell lines to identify multiple opportunities for drug repurposing: Primary screen for Saos-2 cells (AID 1347097); also: nearly all actives have a fitted effect of over 40% in size
Conditions: Saos-2 viability, CellTiter-Glo ATP luminescence, 48 h; series mostly up to 46 µM
Records with an inconclusive call do not appear. Active and inactive are the calls of the source. Calls follow the shape of the dose curve; as a rule, active = well fitted cell-killing curve with a large enough effect; inconclusive = small, poorly fitted or top-dose-only effect; inactive = no such curve, though single readings can be large or run the other way.
quantity: outcome

Some compounds with recorded outcome:
O=C(CCCN1CC=C(n2c(=O)[nH]c3ccccc32)CC1)c1ccc(F)cc1: inactive
CC1CCc2c(N3CCC(O)CC3)c(F)cc3c(=O)c(C(=O)O)cn1c23 (stereo unspecified): inactive
CC1(C)OC[C@@H]2O[C@@]3(C(=O)O)OC(C)(C)O[C@H]3[C@@H]2O1: inactive
O=C(O)C1(C(=O)O)CCC1.[NH2-].[NH2-].[Pt+2]: inactive
CC(C)Nc1cccnc1N1CCN(C(=O)c2cc3cc(NS(C)(=O)=O)ccc3[nH]2)CC1: inactive

### Prompt Look at this compound and give its reported outcome. CCCCCCCCCCCCCCCC(=O)O
### Response inactive

### Prompt Look at this compound and give its reported outcome. C[N+]1(C)CCC(=C(c2ccccc2)c2ccccc2)CC1
### Response inactive

### Prompt Look at this compound and give its reported outcome. NC1CCN(c2nc3c(cc2F)c(=O)c(C(=O)O)cn3-c2ccc(F)cc2F)C1 (stereo unspecified)
### Response inactive

### Prompt Look at this compound and give its reported outcome. CC(=O)OCC1=C(C(=O)O)N2C(=O)[C@@H](NC(=O)CSc3ccncc3)[C@H]2SC1
### Response inactive

### Prompt Look at this compound and give its reported outcome. Cc1ccc(-c2ncc(Cl)cc2-c2ccc(S(C)(=O)=O)cc2)cn1
### Response inactive

### Prompt Look at this compound and give its reported outcome. c1ccc(CC2=NCCN2)cc1
### Response inactive

###

Tested on: 7G8
Test: qHTS profiling for inhibitors of Plasmodium falciparum proliferation (AID 504749); also: nearly all actives have a fitted effect of over 60% in size; also: potency is read from the fitted curve at half-maximal effect
Conditions: P. falciparum in erythrocytes, SYBR Green DNA, 72 h; series mostly up to 28.7 µM
Inconclusive results are not listed. The source made the active and inactive calls. The call rests on the fitted dose curve; in most records, active means well fitted inhibition curve with a large enough effect; inconclusive means small, poorly fitted or top-dose-only effect; inactive means flat fitted curve, though single readings scatter.
quantity: Potency

Some compounds with recorded Potency:
c1ccc(-c2nc[nH]c2-c2ccccc2)cc1: inactive
CCN(CC)CCNC(=O)c1cc(Br)c(N)cc1OC: inactive
Cc1cc(CC(=O)O)c(C)n1-c1ccc(Cl)cc1: 11.2 µM (active)
CCN1/C(=C/C=C/c2sc3ccccc3[n+]2CC)Sc2ccccc21: 0.0794 µM (active)
C#C[C@]1(O)CC[C@H]2[C@@H]3CCC4=Cc5oncc5C[C@]4(C)[C@H]3CC[C@@]21C: inactive
NS(=O)(=O)c1ccc(Cl)c(S(N)(=O)=O)c1: inactive
CCOc1cc(OCC)c(C(=O)CCC(=O)O)cc1OCC: inactive
CC[C@H](c1ccc(O)cc1)[C@@H](CC)c1ccc(O)cc1: inactive
Cc1ccc(-c2ncc(Cl)cc2-c2ccc(S(C)(=O)=O)cc2)cn1: 8.91 µM (active)
Oc1ccccc1C=NCc1ccccc1: inactive

### Prompt What measured Potency is associated with COc1cc([C@H]2Oc3cc([C@H]4Oc5cc(O)cc(O)c5C(=O)[C@@H]4O)ccc3O[C@@H]2CO)ccc1O on 7G8?
### Response 11.2 µM (active)

###

System: N140
Assay: qHTS profiling for inhibitors of Plasmodium falciparum proliferation (AID 504749); also: nearly all actives have a fitted effect of over 60% in size
Settings: P. falciparum in erythrocytes, SYBR Green DNA, 72 h; series mostly up to 28.7 µM
Inconclusive results are not listed. Activity calls are given as the source filed them. Calls come from the whole dose curve; as a rule, active = well fitted inhibition curve with a large enough effect; inconclusive = small, poorly fitted or top-dose-only effect; inactive = flat fitted curve, though single readings scatter.
Outcome field: choose from active, inactive

### Prompt Tell me the recorded outcome of this test for CC(C)Cn1cnc2c1c(=O)n(C)c(=O)n2C .
### Response inactive

### Prompt Tell me the recorded outcome of this test for C[N+]1(CC2COC(c3ccccc3)(C3CCCCC3)O2)CCCCC1 (centres undefined) .
### Response active

### Prompt Tell me the recorded outcome of this test for O=C(Nc1ncc([N+](=O)[O-])s1)c1cccs1 .
### Response inactive

### Prompt Tell me the recorded outcome of this test for CCCCCCCCCCCCCC(=O)OC(C)C .
### Response inactive

### Prompt Tell me the recorded outcome of this test for O=C(Nc1cccc(C2=NCCN2)c1)Nc1cccc(C2=NCCN2)c1 .
### Response active

### Prompt Tell me the recorded outcome of this test for O=C1C(=O)c2ccccc2C(O)=C1C1CCC(c2ccc(Cl)cc2)CC1 (centres undefined) .
### Response active

### Prompt Tell me the recorded outcome of this test for Cn1c(=O)c2[nH]c(Br)nc2n(C)c1=O .
### Response inactive

### Prompt Tell me the recorded outcome of this test for CC(=O)Nc1ccc(S(=O)(=O)Nc2ccc([N+](=O)[O-])cc2)cc1 .
### Response inactive

### Prompt Tell me the recorded outcome of this test for CC(=O)NC(=O)c1ccccc1O .
### Response inactive

### Prompt Tell me the recorded outcome of this test for CCN(CC)CCNC(=O)COc1ccc(OC)cc1 .
### Response inactive

### Prompt Tell me the recorded outcome of this test for CCCCNC(=O)NS(=O)(=O)c1ccc(N)cc1 .
### Response inactive

### Prompt Tell me the recorded outcome of this test for O=C(O)CCC(=O)Nc1ccc(S(=O)(=O)Nc2nccs2)cc1 .
### Response inactive

### Prompt Tell me the recorded outcome of this test for CC(=O)OC[C@H]1O[C@@H](n2ncc(=O)[nH]c2=O)[C@H](OC(C)=O)[C@@H]1OC(C)=O .
### Response inactive

### Prompt Tell me the recorded outcome of this test for O=C(O)Cc1csc(-c2ccc(Cl)cc2)n1 .
### Response inactive

### Prompt Tell me the recorded outcome of this test for CCOC(=O)[C@H](CCc1ccccc1)N[C@@H](C)C(=O)N1[C@H](C(=O)O)C[C@H]2CCCC[C@@H]21 .
### Response inactive

### Prompt Tell me the recorded outcome of this test for CCCCCCCCOc1ccc(C(=O)c2ccccc2)c(O)c1 .
### Response inactive

### Prompt Tell me the recorded outcome of this test for NC(=O)C1(N2CCCCC2)CCN(CCCC(=O)c2ccc(F)cc2)CC1 .
### Response inactive

### Prompt Tell me the recorded outcome of this test for O=C(NC1CCN(CCc2c[nH]c3ccccc23)CC1)c1ccccc1 .
### Response inactive

### Prompt Tell me the recorded outcome of this test for CC(=O)Oc1ccc(C)cc1 .
### Response inactive

### Prompt Tell me the recorded outcome of this test for CCOC(=O)Nc1ccc2c(c1)N(C(=O)CCN1CCOCC1)c1ccccc1S2 .
### Response inactive

### Prompt Tell me the recorded outcome of this test for NCCNc1cccc2ccccc12 .
### Response inactive

### Prompt Tell me the recorded outcome of this test for COc1ccc(CCN(C)CCCN2CCc3cc(OC)c(OC)cc3CC2=O)cc1OC .
### Response inactive

### Prompt Tell me the recorded outcome of this test for CCCN(CCC)S(=O)(=O)c1ccc(C(=O)O)cc1 .
### Response inactive

### Prompt Tell me the recorded outcome of this test for CC1=C(C(=O)O)N2C(=O)[C@@H](NC(=O)[C@H](N)c3ccccc3)[C@H]2SC1 .
### Response inactive

### Prompt Tell me the recorded outcome of this test for CCN1/C(=C/C=C/c2sc3ccccc3[n+]2CC)Sc2ccccc21 .
### Response active

### Prompt Tell me the recorded outcome of this test for CC(C)NCC(O)c1ccc2ccccc2c1 (centres undefined) .
### Response active

### Prompt Tell me the recorded outcome of this test for C#C[C@]1(O)CC[C@H]2[C@@H]3CCc4cc(OC)ccc4[C@H]3CC[C@@]21C .
### Response inactive

### Prompt Tell me the recorded outcome of this test for CC(=O)OCC(=O)[C@H]1CC[C@H]2[C@@H]3CCC4=CC(=O)CC[C@]4(C)[C@H]3CC[C@]12C .
### Response inactive

### Prompt Tell me the recorded outcome of this test for O=C(NCCc1c[nH]c2ccccc12)c1cccnc1 .
### Response inactive

### Prompt Tell me the recorded outcome of this test for COc1cc(C(=O)N2CCCCCCC2)cc(OC)c1OC .
### Response inactive

### Prompt Tell me the recorded outcome of this test for CCN(CC)CCNC(=O)c1cc(Br)c(N)cc1OC .
### Response inactive

### Prompt Tell me the recorded outcome of this test for CC(C)CCCC(C)N (centres undefined) .
### Response inactive

### Prompt Tell me the recorded outcome of this test for CN(CCCN1c2ccccc2CCc2ccccc21)CC(=O)c1ccc(Cl)cc1 .
### Response active

### Prompt Tell me the recorded outcome of this test for O=S(=O)(O)c1ccc(O)cc1 .
### Response inactive

### Prompt Tell me the recorded outcome of this test for OCc1ccccn1 .
### Response inactive

### Prompt Tell me the recorded outcome of this test for FC(F)(F)C(F)(F)C(F)(F)C(F)(F)C(F)(F)C(F)(F)C(F)(F)C(F)(F)Br .
### Response inactive

### Prompt Tell me the recorded outcome of this test for N=C(N)N1CCc2ccccc2C1 .
### Response inactive

### Prompt Tell me the recorded outcome of this test for N#CCC(=O)NN .
### Response inactive

### Prompt Tell me the recorded outcome of this test for Cc1cc(C)cc(OCC2CNC(=O)O2)c1 (centres undefined) .
### Response inactive

### Prompt Tell me the recorded outcome of this test for CCN(CC)CCNc1ccc(CO)c2sc3ccccc3c(=O)c12 .
### Response active

### Prompt Tell me the recorded outcome of this test for CCCCCCCCCCCCCCCCO .
### Response inactive

### Prompt Tell me the recorded outcome of this test for NC(N)=NN=C(/C=C/c1ccc([N+](=O)[O-])o1)/C=C/c1ccc([N+](=O)[O-])o1 .
### Response active

### Prompt Tell me the recorded outcome of this test for COc1cc(C)nc(-n2nc(C)cc2OC)n1 .
### Response inactive

### Prompt Tell me the recorded outcome of this test for CCCCc1cc2ccccc2c(OCCN(C)C)n1 .
### Response inactive

### Prompt Tell me the recorded outcome of this test for C#C[C@]1(O)CC[C@H]2[C@@H]3CCC4=CC(=O)CC[C@@H]4[C@H]3CC[C@@]21CC .
### Response inactive

### Prompt Tell me the recorded outcome of this test for CC[C@H](c1ccc(O)cc1)[C@@H](CC)c1ccc(O)cc1 .
### Response inactive

### Prompt Tell me the recorded outcome of this test for CCOC(=O)c1c(N)sc2c1CCN(Cc1ccccc1)C2 .
### Response active

### Prompt Tell me the recorded outcome of this test for C=CCN1CCc2nc(N)sc2CC1 .
### Response inactive

### Prompt Tell me the recorded outcome of this test for C/C=C/C=N/NC(=O)c1ccncc1 .
### Response inactive
